Biological target: μ-calpain (Homo sapiens, UniProt P07384)
Construct: purchased Nakalai Tesque
Sequence (P07384 whole entry): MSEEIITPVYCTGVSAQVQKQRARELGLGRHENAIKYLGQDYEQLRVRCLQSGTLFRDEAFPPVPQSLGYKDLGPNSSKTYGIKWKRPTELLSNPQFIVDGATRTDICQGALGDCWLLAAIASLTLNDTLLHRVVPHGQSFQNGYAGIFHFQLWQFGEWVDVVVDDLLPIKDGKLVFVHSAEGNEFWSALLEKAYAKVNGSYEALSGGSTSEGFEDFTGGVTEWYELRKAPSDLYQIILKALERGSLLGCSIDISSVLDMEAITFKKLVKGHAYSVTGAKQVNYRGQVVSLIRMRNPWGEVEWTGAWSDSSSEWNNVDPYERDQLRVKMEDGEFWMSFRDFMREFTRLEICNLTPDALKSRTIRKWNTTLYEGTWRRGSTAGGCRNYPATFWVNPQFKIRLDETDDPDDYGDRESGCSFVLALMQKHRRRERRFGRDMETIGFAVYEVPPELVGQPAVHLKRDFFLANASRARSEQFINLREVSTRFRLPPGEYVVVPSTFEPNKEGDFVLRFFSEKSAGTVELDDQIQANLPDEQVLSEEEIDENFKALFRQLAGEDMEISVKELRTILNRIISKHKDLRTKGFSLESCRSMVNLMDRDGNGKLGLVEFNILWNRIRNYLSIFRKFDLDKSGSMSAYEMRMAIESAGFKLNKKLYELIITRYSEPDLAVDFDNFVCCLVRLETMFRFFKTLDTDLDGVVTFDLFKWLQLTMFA
Sequence (P04632 whole entry partner): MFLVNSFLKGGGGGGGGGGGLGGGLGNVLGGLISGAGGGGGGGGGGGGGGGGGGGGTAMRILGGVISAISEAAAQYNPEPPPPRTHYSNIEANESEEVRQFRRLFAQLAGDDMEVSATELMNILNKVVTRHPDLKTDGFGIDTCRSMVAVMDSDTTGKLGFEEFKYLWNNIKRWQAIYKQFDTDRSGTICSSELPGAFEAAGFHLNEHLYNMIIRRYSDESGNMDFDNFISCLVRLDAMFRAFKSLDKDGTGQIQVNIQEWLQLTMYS
Assay: μ-Calpain-inhibitory activity (casein substrate)
Assay type: biochemical
Conditions: 60 minutes at 30° C., pH 7.4, 4 mM calcium chloride
readout_name: IC50 (µM)
Your answer is read as µM, so omit the unit and give the number.

Entry CC(C)C[C@@H](C=O)NC(=O)[C@@H](NS(=O)(=O)c1ccc2ccccc2c1)C(C)(C)C [Compound 38] ; assay system μ-calpain (Homo sapiens, UniProt P07384); IC50 recorded at 6.1

Entry O=C[C@H](Cc1ccccc1)NC(=O)C1(NS(=O)(=O)c2ccc3ccccc3c2)CCCCC1 [Compound 47] ; assay system μ-calpain (Homo sapiens, UniProt P07384); IC50 recorded at 0.2

Entry CC(C)C[C@H](NC(=O)[C@H]1O[C@@H]1C(=O)O)C(=O)N1CCN(c2ccccc2Cl)CC1 [Compound 17] ; assay system μ-calpain (Homo sapiens, UniProt P07384); IC50 recorded at 0.35

Entry CC(C)[C@H](NC(=O)[C@H]1O[C@@H]1C(=O)O)C(=O)N1CCN(c2ccccc2Cl)CC1 [Compound 21] ; assay system μ-calpain (Homo sapiens, UniProt P07384); IC50 recorded at 0.95

Entry O=C(O)[C@H]1O[C@@H]1C(=O)N1CCC[C@H]1C(=O)N1CCN(c2ccccc2Cl)CC1 [Compound 27] ; assay system μ-calpain (Homo sapiens, UniProt P07384); IC50 recorded at 2400

New cases:
Entry CC(C)(C)[C@H](NS(=O)(=O)c1ccc2ccccc2c1)C(=O)N[C@H](C=O)Cc1ccccc1 [Compound 42] ; assay system μ-calpain (Homo sapiens, UniProt P07384); IC50 recorded at 3.2

Entry CC(C)[C@H](NS(=O)(=O)c1ccc(F)cc1)C(=O)NC(C=O)CC1CCCCC1 (stereo partly drawn) [Compound 52] ; assay system μ-calpain (Homo sapiens, UniProt P07384); IC50 recorded at 0.03

Entry CC(C)C[C@H](NC(=O)[C@H]1O[C@@H]1C(=O)O)C(=O)N1CCN(c2ccc(Cl)cc2)CC1 [Compound 19] ; assay system μ-calpain (Homo sapiens, UniProt P07384); IC50 recorded at 0.49

Entry CC(C)C[C@H](NC(=O)[C@H]1O[C@@H]1C(=O)O)C(=O)N1CCN(c2ccc(F)cc2)CC1 [Compound 13] ; assay system μ-calpain (Homo sapiens, UniProt P07384); IC50 recorded at 0.81

Entry CC(C)[C@H](NS(=O)(=O)c1ccc(Cl)cc1)C(=O)NC(C=O)CC1CCCCC1 (stereo partly drawn) [Compound 54] ; assay system μ-calpain (Homo sapiens, UniProt P07384); IC50 recorded at 0.014

Entry O=C(O)[C@H]1O[C@@H]1C(=O)N[C@@H](Cc1ccccc1)C(=O)N1CCN(c2ccc(F)cc2)CC1 [Compound 11] ; assay system μ-calpain (Homo sapiens, UniProt P07384); IC50 recorded at 2.9

Entry CC(C)[C@H](NS(=O)(=O)c1ccc(F)cc1)C(=O)N[C@H](C=O)Cc1c[nH]c2ccccc12 [Compound 49] ; assay system μ-calpain (Homo sapiens, UniProt P07384); IC50 recorded at 0.023
